Tested on: MCF7 breast
Test: NCI tumour cell line growth inhibition, 48 h
Endpoint label: TGI (µM)
Your answer is read as µM, so omit the unit and give the number.

Find the measured TGI: item CCCCN1CN2C(=O)C(C(=O)OCC)C(=O)c3sc4nc(SC)nc1c4c32 (configuration not stated) , target or system MCF7 breast.
39.9

Find the measured TGI: item CNC/C(Cl)=N/S(=O)(=O)c1ccc(C)cc1 , target or system MCF7 breast.
23.7

Find the measured TGI: item CO[C@@H]1C[C@H]2[C@@H]3CC[C@H]([C@@H](C)CO)[C@@]3(C)CC[C@@H]2[C@@]2(C)CC[C@H]3C[C@]312 , target or system MCF7 breast.
31.8

Find the measured TGI: item C=C1C(=O)O[C@@H]2[C@@H]3O[C@@H](C[C@@H]13)[C@](C)(O)CC/C=C(\C)CCC[C@@H]2C , target or system MCF7 breast.
22.1

###

System: NCI-H460 lung
Assay: NCI tumour cell line growth inhibition, 48 h
Give measured TGI for each item. Keep answers brief.
Your answer is read as µM, so omit the unit and give the number.

Quick one: TGI for Cc1occc1C(=S)Nc1ccc(Cl)c(C(=O)OC(C(C)C)C(C)C)c1 ?
31.6

Quick one: TGI for C=C(C)[C@@H]1CC[C@]2(C(=O)O)CC[C@]3(C)[C@H](CC[C@@H]4[C@@]5(C)CCC(NC(=O)c6cccc(OC(C)=O)c6OC(C)=O)C(C)(C)[C@@H]5CC[C@]43C)[C@@H]12 (stereo not given in full) ?
1.42

Quick one: TGI for C/C(=N\Nc1cc(C)c2ccccc2n1)c1ccccn1 ?
1.17

Quick one: TGI for CC1(C)CCc2c(c(N=Nc3ccc(S(N)(=O)=O)cc3)c3ccccc3c2O)O1 ?
24.3

###

Tested on: CAKI-1 renal
Assay: NCI tumour cell line growth inhibition, 48 h; in the data active = GI50 below about 0.43 µM; inactive = the rest
// one of Yes for active, No for inactive, no free text

Recorded test call requested for COc1ccc(NC([Se])=NC23CC4CC(CC(C4)C2)C3)cc1
No

Recorded test call requested for CC(C)[O-].CC(C)[O-].O=C1C=C([O-])C(=O)c2ccccc21.O=C1C=C([O-])C(=O)c2ccccc21.[Ti+4]
No

Recorded test call requested for O=C1NC(=O)C(c2ccccc2Cl)=C1Nc1cc(Cl)c(O)c(Cl)c1
No

Recorded test call requested for N#CC1=C(N)Oc2c(ccc3ccccc23)C1c1ccccc1 (stereo not given)
Yes

Recorded test call requested for CNC(=O)c1ccc(N2C(=S)N(c3ccc(C#N)c(C(F)(F)F)c3)C(=O)C2(C)C)cc1F
No

###

System: SF-268 CNS
Assay: NCI tumour cell line growth inhibition, 48 h
Endpoint label: TGI (µM)
Your answer is read as µM, so omit the unit and give the number.

Quick one: TGI for C[C@]12CC[C@@H]3c4cc(-c5ccc(F)cc5)c(O)cc4CC[C@H]3[C@@H]1CC[C@@H]2O ?
27.8

Quick one: TGI for CCOC(=O)CCC(NC(=O)c1ccc(Oc2nc3ccccc3nc2-c2ccccc2)cc1)C(=O)OCC (stereo not given) ?
28.2

###

Test system: KM12 colon
Experiment: NCI tumour cell line growth inhibition, 48 h
Endpoint label: TGI

Quick one: TGI for C=C1C(C2(C)C(OC(C)=O)CC(=O)OC(C)(COC(C)=O)C2CC(=O)OC)C(OC=O)C(OC(=O)C(O)C(C)CC)C2(C)C(c3ccoc3)CC(=O)C12O (centres undefined) ?
> 100 µM

Quick one: TGI for COc1ccc(N2C(=O)[C@H]3[C@H]4CC(C(C)(C)C)CC[C@H]4c4c(n(C)c5ccccc45)[C@H]3C2=O)cc1 (some centres undefined) ?
> 61.3 µM

Quick one: TGI for COc1cc(/C=C2\N=C(c3ccccc3)N(c3nc4cc(C)c(C)cc4s3)C2=O)ccc1O ?
> 100 µM

Quick one: TGI for CCn1c(SCC(=O)N/N=C/c2ccccc2)nc2ccccc2c1=O ?
> 68.8 µM

Quick one: TGI for COc1c(OC(C)C)c(OC(C)C)c2oc(=O)n3c2c1C(c1ccccc1-n1c(C)ccc1C)C=C3 (centres undefined) ?
> 100 µM

Quick one: TGI for CCOc1ccc(N=Cc2ccc3cc(C)ccc3n2)cc1 ?
> 100 µM

Quick one: TGI for Cc1nc2sc(C(=O)Nc3cccc4ccccc34)c(N)c2cc1C(O)c1ccccc1 (centres undefined) ?
1.73 µM

Quick one: TGI for CC1CN=C(Nc2ccccc2)S1 (centres undefined) ?
> 100 µM

Quick one: TGI for O=C1Cc2c([nH]c3ccccc23)-c2ccccc2N1 ?
45.2 µM

Quick one: TGI for CCC(C(=O)C(=O)C(CC)P1(=O)OC(C)(C)CN1C(C)(C)C)P1(=O)OC(C)(C)CN1C(C)(C)C (centres undefined) ?
> 100 µM

Quick one: TGI for COc1cc(N2CCC(N3CCN(C)CC3)CC2)ccc1Nc1ncnc(Nc2ccccc2S(=O)(=O)C(C)C)n1 ?
27.6 µM

Quick one: TGI for O=S(=O)(c1ccccc1)C(c1ccc2ccccc2n1)S(=O)(=O)c1ccccc1 ?
> 100 µM

Quick one: TGI for COc1ccc2nccc(SCC(=O)O)c2c1 ?
> 100 µM

Quick one: TGI for CC(C)(C)CC(C)(C)c1cc2c(O)c(c1)Cc1cc(C(C)(C)CC(C)(C)C)cc(c1O)Cc1cc(C(C)(C)CC(C)(C)C)cc(c1O)Cc1cc(C(C)(C)CC(C)(C)C)cc(c1O)Cc1cc(C(C)(C)CC(C)(C)C)cc(c1O)C2 ?
> 100 µM

Quick one: TGI for COc1ccc(S(=O)(=O)NC(CCC(=O)NN)C(=O)NN)cc1 (centres undefined) ?
> 100 µM

Quick one: TGI for COc1ccc(-c2cc(=O)c3ccccc3o2)cc1N ?
> 100 µM

Quick one: TGI for CC(=O)O/C=C1/C[C@H]2[C@@H]3CCC4CC(C(C)=O)CC[C@]4(C)[C@H]3CC[C@]2(C)C1=O (some centres undefined) ?
93.3 µM

Quick one: TGI for O=c1ccs[nH]1 ?
62.1 µM

Quick one: TGI for Nc1nc(N)c2cc(-c3ccccc3)cnc2n1 ?
30.1 µM

###

Give measured TGI for each item. Keep answers brief.
Tested on: SR leukemia
Assay: NCI tumour cell line growth inhibition, 48 h

Quick one: TGI for CC(NO)/C(=N/O)c1ccco1 (stereo not given) ?
> 10 µM

Quick one: TGI for CC[C@@H]1C(=O)OC[C@@H]1Cc1cncn1C ?
> 100 µM

Quick one: TGI for COc1cc(C2SCC(=O)N2c2ccc(-n3c(-c4ccccc4)nc4ccccc4c3=O)cc2)cc(OC)c1OC (stereo not given) ?
> 100 µM

Quick one: TGI for CC(=C/C=C/C=C(C)\C=C\C=C(\C)C(=O)O)/C=C/C=C(/C)C(=O)O ?
> 100 µM

Quick one: TGI for CCC(=O)Nc1ccccc1C#C/C=C\C#Cc1ccccc1SC ?
> 100 µM

Quick one: TGI for N#CC1=C(N)Oc2c(ccc3ccccc23)C1c1ccccc1 (stereo not given) ?
22.4 µM

Quick one: TGI for O=C1/C(=C/c2ccc(OC(=O)c3ccccc3)cc2)CCC/C1=C\c1ccc(OC(=O)c2ccccc2)cc1 ?
> 100 µM

Quick one: TGI for Nc1nc2c(c(=O)[nH]1)C(c1ccccc1)CC(=O)N2 (stereo not given) ?
> 100 µM

Quick one: TGI for NC1CCC(Nc2nc(NCc3ccc(-c4ccccc4O)nc3)c3ncn(C4CCCC4)c3n2)CC1 (stereo not given) ?
1.35 µM

Quick one: TGI for C[C@@H](O)[C@H](NC(=O)N[C@@H](CC(N)=O)c1nc([C@@H](N)CO)no1)C(=O)O ?
> 100 µM

Quick one: TGI for CC(C)(C)[Si](C)(C)Oc1cc(CO)cc2c1cc(=N)o[n+]2[O-] ?
7.58 µM

Quick one: TGI for CCCCCCCCCCCCCCCCCCN(C)C(COC)COP(=O)([O-])OCC[N+](C)(C)C (stereo not given) ?
22.9 µM

Quick one: TGI for CS(=O)(=O)CCNCc1ccc(-c2ccc3ncnc(Nc4ccc(OCc5ccccc5)c(Br)c4)c3c2)o1 ?
> 23.3 µM

Quick one: TGI for CNC(=O)c1ccc(N2C(=S)N(c3ccc(C#N)c(C(F)(F)F)c3)C(=O)C2(C)C)cc1F ?
> 100 µM

Quick one: TGI for C=C1C(=O)OC2C1CCC(C)C1C=CC(=O)C12C (stereo not given) ?
9.73 µM

Quick one: TGI for CC1=CC[C@H](C(C)C)C(C(O)[C@@H](C)O[Si](c2ccccc2)(c2ccccc2)C(C)(C)C)C1=O (stereo not given in full) ?
> 100 µM

Quick one: TGI for COc1cc(/C=C2\N=C(c3ccccc3)N(c3nc4cc(C)c(C)cc4s3)C2=O)ccc1O ?
57.8 µM

Quick one: TGI for Cc1ccc(/C(O)=C/c2nc3c(nc2NC24CC5CC(CC(C5)C2)C4)c(=O)oc2ccccc23)cc1 ?
> 100 µM

Quick one: TGI for c1ccc2c(NCCCCCCNc3c4ccccc4nc4ccccc34)c3ccccc3nc2c1 ?
0.991 µM

Quick one: TGI for CC[C@H](Nc1c(O)c2c(c(O)c1Cl)C(=O)C=CC2=O)C(=O)OC ?
7.74 µM

Quick one: TGI for O=C1CC(=O)N(C(=O)c2nn(-c3ccc(Cl)cc3)cc2O)N1 ?
5.04 µM

Quick one: TGI for CCN(CC)CCCNC(=O)C1COc2cc(-c3cc(=O)c4ccccc4o3)ccc2O1 (stereo not given) ?
47.9 µM

Quick one: TGI for COC(=O)C1=C(O)c2cc(-c3ccccc3)c(-c3ccccc3)c(C#N)c2NC(=O)C1 ?
> 100 µM

Quick one: TGI for O=c1ccs[nH]1 ?
16.4 µM

Quick one: TGI for Cc1ccc(NC2=C(Cl)C(=O)N(Cc3ccc(Cl)cc3)C2=O)cc1O ?
> 100 µM

Quick one: TGI for Cc1n[nH]c(=O)n1/N=C/c1ccc(F)cc1 ?
> 100 µM

Quick one: TGI for NC(=O)c1cc2ccc(O)cc2o/c1=N/NC(=O)c1ccccc1 ?
> 100 µM

Quick one: TGI for COc1cccc2c1CCc1c(-c3ccc(F)cc3)cc(-c3ccc4ccccc4n3)nc1-2 ?
> 100 µM

Quick one: TGI for CCOC(=O)NC1C2CC(=O)OC(O2)C1OC(C)=O (stereo not given) ?
> 100 µM

Quick one: TGI for COc1ccc(-c2oc(=O)ccc2-c2cc(OC)c(OC)c(OC)c2)cc1O ?
> 23.8 µM

Quick one: TGI for Cc1nc(C(N)=S)sc1C(=O)CC(=O)C(=O)Nc1ccccc1[N+](=O)[O-] ?
> 100 µM

Quick one: TGI for O=C1O/C(=C\c2ccccc2)N(c2ccccc2)C1=O ?
> 100 µM

Quick one: TGI for Clc1nssc1=Nc1nonc1-c1ccccc1 ?
68.6 µM

Quick one: TGI for N#Cc1c(=O)c2ccccc2n2c1[nH]c1ccccc12 ?
43.8 µM

Quick one: TGI for c1ccc(N=C(Nc2ccccc2)N2CCCC2)cc1 ?
> 100 µM

Quick one: TGI for CC(=O)c1cccc(C)c1C(=O)O ?
> 100 µM

Quick one: TGI for COc1cc(S(=O)(=O)Nc2nc(-c3ccc(N4C(=O)/C(=C/C=C/c5ccccc5)N=C4c4ccccc4)cc3)cs2)ccc1Cl ?
> 100 µM

Quick one: TGI for O=C(c1c(F)c(F)c(F)c(F)c1F)N1CCN(C(=O)c2c(F)c(F)c(F)c(F)c2F)C1=S ?
> 100 µM

Quick one: TGI for CNC/C(Cl)=N/S(=O)(=O)c1ccc(C)cc1 ?
34.9 µM

Quick one: TGI for COC(=O)[C@]12CC[C@H]3CC[C@H]([C@H]31)[C@H](c1ccccc1)N2 ?
38.8 µM
